# targetOrTestSystem: membrane LIGHT without residues 81-84 (EL4-NC-LIGHT cells) (human, UniProt O43557 1-240)
# Sequence (O43557 other isoform, or with tags, fused parts or gaps): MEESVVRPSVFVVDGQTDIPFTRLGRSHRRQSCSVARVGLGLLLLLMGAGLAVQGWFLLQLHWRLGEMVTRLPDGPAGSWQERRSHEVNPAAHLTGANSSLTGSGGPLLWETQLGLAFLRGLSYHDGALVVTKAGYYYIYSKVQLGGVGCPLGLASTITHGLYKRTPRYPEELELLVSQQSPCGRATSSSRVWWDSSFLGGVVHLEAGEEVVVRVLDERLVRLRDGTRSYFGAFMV
# experimentalProtocol: cell-based or functional assay
IC50, inhibition of IL-8 secretion from HT-29 cells (EL4-NC-LIGHT cells) values by entry
endpoint: IC50, inhibition of IL-8 secretion from HT-29 cells (EL4-NC-LIGHT cells) (nM)

binder: 3B04_var15 (antibody, human IgG4, V domains shown, human IgG4 (S241P, L248E, Kabat); also called 3B04 VL4VH3 (var15)) VH: QVQLVQSGAEVKKPGASVKVSCKASGYTFTDYEMHWVRQAPGQGLEWMGEIDPETGDTAYAQKFQGRVTLTADKSTSTAYMEFSSLRSEDTAVYYCSRETDYFFDYWGQGTLVTVSS VL: DIQMTQSPSSLSASVGDRVTITCRASENIYGALNWYQQKPGKAPKLLIYGATNLAEGVPSRFSGSGSGRDYTLTISSLQPEDFATYYCQNVLTTPWTFGQGTKLEIKR
readingUnit: nM
recordedResult: 0.1
//
binder: 3B04_var5 (antibody, human IgG4, V domains shown, human IgG4 (S241P, L248E, Kabat); also called 3B04 VL2VH1 (var5)) VH: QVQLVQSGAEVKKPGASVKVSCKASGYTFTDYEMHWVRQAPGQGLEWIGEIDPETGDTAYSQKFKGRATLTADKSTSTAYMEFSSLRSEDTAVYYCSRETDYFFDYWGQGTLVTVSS VL: DIQMTQSPSSLSASVGDRVTITCGASENIYGALNWYQRKQGKAPKLLIYGATNLADGVPSRFSGSGSGRDYTLTISSLQPEDFATYYCQNVLTTPWTFGQGTKLEIKR
readingUnit: nM
recordedResult: 0.04
//
binder: 3D12_var14 (antibody, human IgG4, V domains shown, human IgG4 (S241P, L248E, Kabat); also called 3D12 VL4VH2 (var14)) VH: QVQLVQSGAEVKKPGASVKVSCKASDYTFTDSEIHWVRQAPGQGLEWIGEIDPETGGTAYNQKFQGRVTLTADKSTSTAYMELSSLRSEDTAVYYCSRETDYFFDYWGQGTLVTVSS VL: DIQMTQSPSSLSASVGDRVTITCRASENIYGALNWYQQKPGKAPKLLIYGATNLAEGVPSRFSGSGSGRDYTLTISSLQPEDVATYYCQNVLSTPWTFGQGTKLEIKR
readingUnit: nM
recordedResult: 0.45
//
binder: 3B04_var9 (antibody, human IgG4, V domains shown, human IgG4 (S241P, L248E, Kabat); also called 3B04 VL3VH1 (var9)) VH: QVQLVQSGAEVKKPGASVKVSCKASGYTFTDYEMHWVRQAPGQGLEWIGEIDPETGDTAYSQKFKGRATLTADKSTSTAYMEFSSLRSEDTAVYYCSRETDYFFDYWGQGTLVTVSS VL: DIQMTQSPSSLSASVGDRVTITCGASENIYGALNWYQQKPGKAPKLLIYGATNLADGVPSRFSGSGSGRDYTLTISSLQPEDFATYYCQNVLTTPWTFGQGTKLEIKR
readingUnit: nM
recordedResult: 0.09
//
binder: 3D12_var15 (antibody, human IgG4, V domains shown, human IgG4 (S241P, L248E, Kabat); also called 3D12 VL4VH3 (var15)) VH: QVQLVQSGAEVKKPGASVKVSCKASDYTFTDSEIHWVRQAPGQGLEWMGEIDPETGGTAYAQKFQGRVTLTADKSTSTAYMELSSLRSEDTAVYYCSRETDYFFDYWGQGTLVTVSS VL: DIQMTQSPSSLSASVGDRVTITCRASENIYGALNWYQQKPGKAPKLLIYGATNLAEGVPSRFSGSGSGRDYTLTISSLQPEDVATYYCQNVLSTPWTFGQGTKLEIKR
readingUnit: nM
recordedResult: 0.38
